Each recorded value in this set is attributed to ChEMBL document CHEMBL1124148.

# System: SCC-15
# assay protocol: Inhibitory concentration against growth of SCC15 cell line
# Assay type: functional, cell-based
# condition parameters: Homo sapiens
endpoint name: pIC50
Please note pIC50 is a logarithmic value: minus log10 of concentration in mol/L. Answer with that number alone.

Requested read-out: pIC50. Entry: CN(Cc1cnc2nc(N)nc(N)c2n1)c1ccc(C(=O)N[C@@H](CCC(=O)O)C(=O)O)cc1 [METHOTREXATE]
7.42

* * *

# assay protocol: Inhibition of FPGS from mouse liver in the presence of folic acid
# Assay type: functional
I'd appreciate it if you could supply pKi values for the items below.
Please note pKi is a logarithmic value: minus log10 of concentration in mol/L. Answer with that number alone.

Requested read-out: pKi. Entry: CC(=O)NCCCC(NC(=O)c1ccc(NCc2cnc3nc(N)nc(N)c3n2)cc1)C(=O)O (stereo not drawn)
4.17

Requested read-out: pKi. Entry: NCCCC(NC(=O)c1ccc(N(C=O)Cc2cnc3nc(N)nc(N)c3n2)cc1)C(=O)O (stereo not drawn)
6.19

Requested read-out: pKi. Entry: NCCCC(NC(=O)c1ccc(NCc2cnc3nc(N)nc(N)c3n2)cc1)C(=O)O (stereo not drawn)
6.82

Requested read-out: pKi. Entry: Nc1nc(N)c2nc(CNc3ccc(C(=O)NC(CCCNC(=O)CCC(=O)O)C(=O)O)cc3)cnc2n1 (stereo not drawn)
4.36
